Could you please report measured Relative binding activity, % for the items listed next?
- target: T1, Biotin-huCGRPaSA (human, not fully specified; biotin (position not given))
- T1 construct: exact construct ('aSA') not explained; also called Biotin CGRPaSA; full-length (1-37) CGRP
- T1 peptide: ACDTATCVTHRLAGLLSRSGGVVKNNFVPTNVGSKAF
- protocol_summary: ELISA, supernatant; relative to chimeric C245
- Experimental: Biotin CGRPaSA was diluted with PBS (Hyclone) to 1.0 μg/mL, and the dilution was added to a microplate at 100 μL/well. The plate was let stand in an incubator at 37° C. and coated for 90 min and then washed, and 2% BSA was added to the plate at 200 μL/well. […] Finally, a 2 M hydrochloric acid solution was added at 100 μL/well to stop the reaction while avoiding bubbles, and the plates were read on a microplate reader within 10 min (wavelength: 450/620 nm).
Give just the number in %; leave the unit off.

Input line: # get_value(readout='Relative binding activity, %', item= hu108 (antibody, V domains shown, 2B8 HC1-1/1A2 LC2-4) VH: QVQLVQSGAEVKKPGASVKVSCKASGYTFTDYNMHWVRQAPGQGLEWMGNIYPYNGGTVYNQKFNNRVTLTVDTSSSTAYMELSRLRSDDTAVYYCAREGLGGYWGQGTLVTVSS VL: DIQLTQSPSFLSASVGDRVTITCKASQNIDYDGYAYLNWYQQKPGKAPKVLIYSVFNLESGVPSRFSGSGSGTEFTLTISSLQPEDFATYYCQQSNEFPYTFGQGTKLEIK )
Output line: 70

Input line: Please give the result for hu154 (antibody, V domains shown, 3E5 HC-1/3E5 LC-1) VH: QVQLVQSGAEVKKPGASVKVSCKTSGYTFTDYNMHWVRQAPGQRLEWMGYISPYNGGTAYNQKFKFRVTLTVDTSSSTAYMELSSLRSEDTAVYYCAREGLGGYWGQGTLVTVSS VL: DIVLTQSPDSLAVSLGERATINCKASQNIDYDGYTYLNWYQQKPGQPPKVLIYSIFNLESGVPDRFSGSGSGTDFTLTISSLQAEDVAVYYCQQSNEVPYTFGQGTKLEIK too.
Output line: 121
